- subject-of-test: PPARγ (Homo sapiens, UniProt P37231)
- Construct: 174-475 (PPARg)
- Sequence (P37231 204-505): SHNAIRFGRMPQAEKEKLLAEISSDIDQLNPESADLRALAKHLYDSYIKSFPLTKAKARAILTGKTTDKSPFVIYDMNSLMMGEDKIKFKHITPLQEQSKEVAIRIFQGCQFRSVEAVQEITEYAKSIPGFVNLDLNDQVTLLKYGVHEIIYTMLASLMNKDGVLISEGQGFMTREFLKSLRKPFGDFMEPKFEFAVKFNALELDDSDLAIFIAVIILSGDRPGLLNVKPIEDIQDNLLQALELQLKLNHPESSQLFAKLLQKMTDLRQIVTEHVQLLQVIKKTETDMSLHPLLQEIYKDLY
- method-description: Determination of transcriptional activity (GAL4-PPAR LBD chimera, PLAP reporter, CV-1 cells)
- measurement-setup: GAL4-human PPARγ LBD (174-475) chimera, PLAP activity 24 hours after addition of compound
pEC50: −log10 of the molar value.
readout-name: pEC50

COc1ccc(CC2(C(=O)O)CCCO2)cc1CNC(=O)c1ccc(OC2CCCC2)cc1Cl (stereo not drawn) [Ex. 5]	7.40
CCCOc1ccc(C(=O)NCc2cc(CC3(C(=O)O)C=CCO3)ccc2OC)c(Cl)c1 (stereo not drawn) [Ex. 49]	7.43
CCCOc1ccc(C(=O)NCc2cc(CC3(C(=O)O)CCCO3)ccc2OC)c(Cl)c1 (stereo not drawn) [Ex. 1]	7.25

1 = CCOc1ccc(C(=O)NCc2cc(CC3(C(=O)O)CCCO3)ccc2OCC)c(Cl)c1 (stereo not drawn) [Ex. 72]
2 = COc1ccc(CC2(C(=O)O)CCCO2)cc1CNC(=O)c1ccc(C2CCCCC2)cc1Cl (stereo not drawn) [Ex. 6]
3 = CCCOc1ccc(C(=O)NCc2cc(CC3(C(=O)O)CCCO3)ccc2OCC)c(Cl)c1 (stereo not drawn) [Ex. 73]
Query: Please produce an ascending ranking of these compounds based on pEC50. When ranking, write the labels in the order the request describes.
Result: 2, 1, 3
(2: 7.11, 1: 7.40, 3: 8.30)

Hey, just so you know, these numbers are from patent US7371777B2.
